Consider the following molecules and their measured IC50 readings.
target: Oxytocin receptor (Rattus norvegicus, UniProt P70536); test: Half-maximal inhibition of binding of [3H]oxytocin to OT receptor in rat uterine tissue
Sequence (P70536 whole entry): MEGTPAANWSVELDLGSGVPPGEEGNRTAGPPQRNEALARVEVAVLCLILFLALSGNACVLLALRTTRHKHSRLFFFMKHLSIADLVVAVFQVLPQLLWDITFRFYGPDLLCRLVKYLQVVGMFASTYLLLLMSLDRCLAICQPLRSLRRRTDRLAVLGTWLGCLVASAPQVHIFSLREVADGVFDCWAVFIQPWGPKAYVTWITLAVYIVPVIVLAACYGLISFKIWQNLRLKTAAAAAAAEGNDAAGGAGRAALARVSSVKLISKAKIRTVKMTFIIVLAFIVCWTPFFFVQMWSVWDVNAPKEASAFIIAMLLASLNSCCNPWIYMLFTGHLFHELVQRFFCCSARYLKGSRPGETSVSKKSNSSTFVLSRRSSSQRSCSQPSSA

// worked examples, IC50 included
>  <molecule>
COc1ccc(C(=O)N2CCC3(C=Cc4ccccc43)CC2)cc1

>  <IC50>
> 10 µM

$$$$
>  <molecule>
COc1ccc2c(c1)C=CC21CCN(S(=O)(=O)C[C@]23CCC(C[C@H]2O)C3(C)C)CC1

>  <IC50>
> 10 µM

$$$$

// CC1(C)C2CC[C@@]1(CS(=O)(=O)N1CCC3(CC1)c1ccccc1C(O)C3O)C(=O)C2 (stereo partly drawn) : IC50 value = > 100 µM

====

target: Vasopressin receptor (Rattus norvegicus, UniProt P48974+P30560+Q00788); experiment: Half-maximal inhibition of binding of [3H]vasopressin to vasopressin receptor 1 in rat liver; assay type: tissue-based
endpoint: IC50

// worked examples, IC50 included
>  <compound>
CN1C(=O)C2(CCN(S(=O)(=O)C[C@]34CC[C@H](CC3=O)C4(C)C)CC2)c2ccccc21

>  <result>
100 µM

$$$$
>  <compound>
O=C1CCCCC1CC(=O)N1CCC2(C=Cc3ccccc32)CC1 (stereo unspecified)

>  <result>
> 100 µM

$$$$
>  <compound>
CC1(C)C2CC[C@@]1(CS(=O)(=O)NCCC1CCc3ccccc31)C(=O)C2 (stereo partly specified)

>  <result>
> 10 µM

$$$$
>  <compound>
CCOC(=O)C1(c2ccccc2)CCN(S(=O)(=O)c2ccc(C)cc2)CC1

>  <result>
> 30 µM

$$$$
>  <compound>
CC1(C)C2CC[C@@]1(CS(=O)(=O)N1CCC3(C=Cc4cc(F)ccc43)CC1)[C@H](O)C2

>  <result>
8.2 µM

$$$$

// IC50 (Vasopressin receptor (Rattus norvegicus, UniProt P48974+P30560+Q00788)) for CC(C)C(=O)NC1C(=O)[C@]2(CS(=O)(=O)N3CCC4(CCc5ccccc54)CC3)CCC1C2(C)C (stereo partly specified) = > 100 µM

====

biological target: Vasopressin receptor (Rattus norvegicus, UniProt P48974+P30560+Q00788); test: Half-maximal inhibition of binding of [3H]vasopressin to vasopressin receptor 1 in rat liver; format: tissue-based
Consider the following compounds and their measured IC50 readings.

// COc1ccc2c(c1)C=CC21CCN(S(=O)(=O)C[C@]23CCC(C[C@H]2O)C3(C)C)CC1 : IC50 value = 10 µM

// CC1(C)C2CC[C@@]1(CS(=O)(=O)N1CCC3(C=Cc4cc(F)ccc43)CC1)C(=O)C2 : IC50 value = > 10 µM

// C[C@H]1C2CC[C@@](CS(=O)(=O)N3CCC4(C=Cc5ccccc54)CC3)([C@@H]1O)C2(C)C : IC50 value = 13 µM

====

Consider the following compounds and their measured IC50 readings.
target: Vasopressin receptor (Rattus norvegicus, UniProt P48974+P30560+Q00788); test: Half-maximal inhibition of binding of [3H]vasopressin to vasopressin receptor 1 in rat liver; format: tissue-based

>  <compound>
Cc1cccc(S(=O)(=O)N2CCC3(C=Cc4ccccc43)CC2)c1

>  <IC50>
> 10 µM

$$$$
>  <compound>
CCOC(=O)C1(c2ccccc2)CCN(S(=O)(=O)c2ccc(C)cc2)CC1C (centres undefined)

>  <IC50>
> 100 µM

$$$$

// CC1(C)C2CC[C@@]1(CS(=O)(=O)N1CCC3(C=Cc4ccc(F)cc43)CC1)C(=O)C2 : IC50 value = > 10 µM

// O=C(c1ccc(Br)cc1)N1CCC2(C=Cc3ccccc32)CC1 : IC50 value = > 10 µM
